Total Related Substances values by entry
Assay: Stability indicating HPLC assay and related substances on storage (Example 3)
Type: physicochemical
Details: 1 month, 40° C./75% RH
Method: Assay (% w/w) and related substances determination Each test material was stored between 2-8*C prior to placing on stability. Each material was sub-divided into 900 mg aliquots, transferred to brown opaque HDPE plastic bottles and flushed with Argon prior to sealing. Sufficient samples were provided for each time point as well as spares for each storage condition. The samples were placed in appropriate incubators previously commissioned at storage conditions 25° C./60% RH, 40° C./75% RH and 60° C. […]
Be sure to follow the number with its unit.

Examples from the recorded data:
CN1CCC23c4c5ccc(O)c4OC2C(OC2OC(C(=O)O)C(O)C(O)C2O)C=CC3C1C5.CN1CCC23c4c5ccc(O)c4OC2C(OC2OC(C(=O)O)C(O)C(O)C2O)C=CC3C1C5.O=C(O)C=CC(=O)O (stereo not drawn) [Morphine-6-glucuronide maleate]: 4.80%
CN1CCC23c4c5ccc(O)c4OC2C(OC2OC(C(=O)O)C(O)C(O)C2O)C=CC3C1C5.O=P(O)(O)O (stereo not drawn) [Morphine-6-glucuronide phosphate]: 3.44%

Now consider a different compound.
Any idea what its Total Related Substances is? The compound is CN1CCC23c4c5ccc(O)c4OC2C(OC2OC(C(=O)O)C(O)C(O)C2O)C=CC3C1C5.CN1CCC23c4c5ccc(O)c4OC2C(OC2OC(C(=O)O)C(O)C(O)C2O)C=CC3C1C5.O=S(=O)(O)O (stereo not drawn) [Morphine-6-glucuronide sulphate] 9.78%

###

Experiment: Stability indicating HPLC assay and related substances on storage (Example 3)
Format: physicochemical
Conditions: 3 months, 25° C./60% RH
Measured Known Related Substances Morphine, listed per entry.
Numeric answer only, unit % assumed.

Some compounds with known Known Related Substances Morphine results, for comparison:
CN1CCC23c4c5ccc(O)c4OC2C(OC2OC(C(=O)O)C(O)C(O)C2O)C=CC3C1C5.CN1CCC23c4c5ccc(O)c4OC2C(OC2OC(C(=O)O)C(O)C(O)C2O)C=CC3C1C5.O=C(O)C=CC(=O)O (centres unmarked) [Morphine-6-glucuronide fumarate]: 0.07
CN1CCC23c4c5ccc(O)c4OC2C(OC2OC(C(=O)O)C(O)C(O)C2O)C=CC3C1C5.CN1CCC23c4c5ccc(O)c4OC2C(OC2OC(C(=O)O)C(O)C(O)C2O)C=CC3C1C5.O=C(O)C=CC(=O)O (centres unmarked) [Morphine-6-glucuronide maleate]: 0.04
CN1CCC23c4c5ccc(O)c4OC2C(OC2OC(C(=O)O)C(O)C(O)C2O)C=CC3C1C5.CN1CCC23c4c5ccc(O)c4OC2C(OC2OC(C(=O)O)C(O)C(O)C2O)C=CC3C1C5.O=S(=O)(O)O (centres unmarked) [Morphine-6-glucuronide sulphate]: 0.17

Query (compound): CN1CC[C@]23c4c5ccc(O)c4O[C@H]2[C@@H](O[C@@H]2O[C@H](C(=O)O)[C@@H](O)[C@H](O)[C@H]2O)C=C[C@H]3[C@H]1C5.Cl [Morphine-6-glucuronide hydrochloride] ; field requested: Known Related Substances Morphine 0.21

Please report the recorded Known Related Substances Morphine for CN1CCC23c4c5ccc(O)c4OC2C(OC2OC(C(=O)O)C(O)C(O)C2O)C=CC3C1C5.O=P(O)(O)O (centres unmarked) [Morphine-6-glucuronide phosphate] . 0.07

###

Here the recorded Total Known is given for each entry.
Experiment: Stability indicating HPLC assay and related substances on storage (Example 3)
Type: physicochemical
Conditions: 1 month, 40° C./75% RH
Description: Assay (% w/w) and related substances determination Each test material was stored between 2-8*C prior to placing on stability. Each material was sub-divided into 900 mg aliquots, transferred to brown opaque HDPE plastic bottles and flushed with Argon prior to sealing. Sufficient samples were provided for each time point as well as spares for each storage condition. The samples were placed in appropriate incubators previously commissioned at storage conditions 25° C./60% RH, 40° C./75% RH and 60° C. […]
Number only, in %; omit the unit.

Check out these entries, answers already filled in.
CN1CCC23c4c5ccc(O)c4OC2C(OC2OC(C(=O)O)C(O)C(O)C2O)C=CC3C1C5.O=P(O)(O)O (stereo not drawn) [Morphine-6-glucuronide phosphate]: 1.37
CN1CC[C@]23c4c5ccc(O)c4O[C@H]2[C@@H](O[C@@H]2O[C@H](C(=O)O)[C@@H](O)[C@H](O)[C@H]2O)C=C[C@H]3[C@H]1C5.Cl [Morphine-6-glucuronide hydrochloride]: 3.91

Could you now consider this next compound?
# get_value(readout='Total Known', item= CN1CCC23c4c5ccc(O)c4OC2C(OC2OC(C(=O)O)C(O)C(O)C2O)C=CC3C1C5.CN1CCC23c4c5ccc(O)c4OC2C(OC2OC(C(=O)O)C(O)C(O)C2O)C=CC3C1C5.O=S(=O)(O)O (stereo not drawn) [Morphine-6-glucuronide sulphate] ) 3.09

###

Experiment: Stability indicating HPLC assay and related substances on storage (Example 3)
Format: physicochemical
Settings: Initial
Protocol: Assay (% w/w) and related substances determination Each test material was stored between 2-8*C prior to placing on stability. Each material was sub-divided into 900 mg aliquots, transferred to brown opaque HDPE plastic bottles and flushed with Argon prior to sealing. Sufficient samples were provided for each time point as well as spares for each storage condition. The samples were placed in appropriate incubators previously commissioned at storage conditions 25° C./60% RH, 40° C./75% RH and 60° C. […]
REPORTED_PROPERTY: M6G Assay, Corrected for the salt form (% w/w)
Answer with a number only, understood to be in % w/w.

Fill blank: measured M6G Assay, Corrected for the salt form of the molecule CN1CCC23c4c5ccc(O)c4OC2C(OC2OC(C(=O)O)C(O)C(O)C2O)C=CC3C1C5.CN1CCC23c4c5ccc(O)c4OC2C(OC2OC(C(=O)O)C(O)C(O)C2O)C=CC3C1C5.O=C(O)C=CC(=O)O (centres unmarked) [Morphine-6-glucuronide maleate] is ____. 99.40

Form field: reported M6G Assay, Corrected for the salt form of CN1CCC23c4c5ccc(O)c4OC2C(OC2OC(C(=O)O)C(O)C(O)C2O)C=CC3C1C5.CN1CCC23c4c5ccc(O)c4OC2C(OC2OC(C(=O)O)C(O)C(O)C2O)C=CC3C1C5.O=S(=O)(O)O (centres unmarked) [Morphine-6-glucuronide sulphate] 97.87

State the recorded M6G Assay, Corrected for the salt form for this entry: CN1CCC23c4c5ccc(O)c4OC2C(OC2OC(C(=O)O)C(O)C(O)C2O)C=CC3C1C5.O=P(O)(O)O (centres unmarked) [Morphine-6-glucuronide phosphate] 108.12

Using the record for CN1CC[C@]23c4c5ccc(O)c4O[C@H]2[C@@H](O[C@@H]2O[C@H](C(=O)O)[C@@H](O)[C@H](O)[C@H]2O)C=C[C@H]3[C@H]1C5.Cl [Morphine-6-glucuronide hydrochloride] , report its M6G Assay, Corrected for the salt form. 100.65

Item Br.CN1CC[C@]23c4c5ccc(O)c4O[C@H]2[C@@H](O[C@@H]2O[C@H](C(=O)O)[C@@H](O)[C@H](O)[C@H]2O)C=C[C@H]3[C@H]1C5 [Morphine-6-glucuronide hydrobromide] has what recorded M6G Assay, Corrected for the salt form? 98.29

###

M6G Assay, As is basis reference
Assay: Stability indicating HPLC assay and related substances on storage (Example 3)
Format: physicochemical
Conditions: Initial
Kindly provide the numeric value in % w/w only, without the unit symbol.

Use the examples below as a reference point.
CN1CCC23c4c5ccc(O)c4OC2C(OC2OC(C(=O)O)C(O)C(O)C2O)C=CC3C1C5.O=P(O)(O)O (stereo not drawn) [Morphine-6-glucuronide phosphate]: 83.90
CN1CCC23c4c5ccc(O)c4OC2C(OC2OC(C(=O)O)C(O)C(O)C2O)C=CC3C1C5.CN1CCC23c4c5ccc(O)c4OC2C(OC2OC(C(=O)O)C(O)C(O)C2O)C=CC3C1C5.O=S(=O)(O)O (stereo not drawn) [Morphine-6-glucuronide sulphate]: 80.62

We next turn to a different compound, shown below.
Quick check: M6G Assay, As is basis of CN1CCC23c4c5ccc(O)c4OC2C(OC2OC(C(=O)O)C(O)C(O)C2O)C=CC3C1C5.CN1CCC23c4c5ccc(O)c4OC2C(OC2OC(C(=O)O)C(O)C(O)C2O)C=CC3C1C5.O=C(O)C=CC(=O)O (stereo not drawn) [Morphine-6-glucuronide maleate] ? 83.61

###

This section presents compounds with their documented Known Related Substances HN67003 values.
Assay: Stability indicating HPLC assay and related substances on storage (Example 3)
Type: physicochemical
Settings: 1 month, 25° C./60% RH
Output spec: scalar in %, unitless text.

Consider the worked cases shown below.
CN1CCC23c4c5ccc(O)c4OC2C(OC2OC(C(=O)O)C(O)C(O)C2O)C=CC3C1C5.O=P(O)(O)O (stereo not shown) [Morphine-6-glucuronide phosphate]: 0.04
CN1CC[C@]23c4c5ccc(O)c4O[C@H]2[C@@H](O[C@@H]2O[C@H](C(=O)O)[C@@H](O)[C@H](O)[C@H]2O)C=C[C@H]3[C@H]1C5.Cl [Morphine-6-glucuronide hydrochloride]: 0.38

Consider the compound shown here: CN1CCC23c4c5ccc(O)c4OC2C(OC2OC(C(=O)O)C(O)C(O)C2O)C=CC3C1C5.CN1CCC23c4c5ccc(O)c4OC2C(OC2OC(C(=O)O)C(O)C(O)C2O)C=CC3C1C5.O=S(=O)(O)O (stereo not shown) [Morphine-6-glucuronide sulphate] What is its recorded Known Related Substances HN67003? 0.69

Given the compound CN1CCC23c4c5ccc(O)c4OC2C(OC2OC(C(=O)O)C(O)C(O)C2O)C=CC3C1C5.CN1CCC23c4c5ccc(O)c4OC2C(OC2OC(C(=O)O)C(O)C(O)C2O)C=CC3C1C5.O=C(O)C=CC(=O)O (stereo not shown) [Morphine-6-glucuronide maleate] , what is its reported Known Related Substances HN67003? 0.17
